Target: T1, ABL2 SH2 domain (human, UniProt P42684 173-263)
T1 construct: ABL2, human; source: bacterial expression, purified
T1 sequence (looked up): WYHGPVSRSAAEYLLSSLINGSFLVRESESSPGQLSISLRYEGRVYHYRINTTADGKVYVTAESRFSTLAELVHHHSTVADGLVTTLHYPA
Assay: peptide or protein array; SH2/PTB proteins spotted on aldehyde slides, rhodamine peptide titrated in buffer B (20 mM HEPES, 100 mM KCl, 0.1% Tween-20, 5 mM DTT, pH 7.8), 1 h at room temperature; replicate assays
Details: both partners purified
Non-standard residues stand in square brackets, D forms with d. No end group written: not given here. pY = N[C@@H](Cc1ccc(OP(=O)(O)O)cc1)C(=O)O; Rhodamine = not defined here

>  <BINDER>
Rhodamine-PLQR[pY]SEDPTVPD (reading uncertain) [ErbB2 pY1112 phosphopeptide, rhodamine-labelled, for protein microarrays]

>  <Kd [nM]>
1840

$$$$
